Target: UniProt P00915
Sequence (P00915 whole entry): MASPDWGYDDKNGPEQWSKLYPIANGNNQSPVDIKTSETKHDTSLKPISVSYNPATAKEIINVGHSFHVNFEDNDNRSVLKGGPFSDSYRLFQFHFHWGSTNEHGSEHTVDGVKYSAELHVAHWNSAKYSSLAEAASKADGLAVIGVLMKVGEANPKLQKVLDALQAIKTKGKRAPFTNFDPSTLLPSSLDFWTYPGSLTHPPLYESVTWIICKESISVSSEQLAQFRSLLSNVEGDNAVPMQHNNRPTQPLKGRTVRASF
Test: stopped flow CO2 hydrase assay, hCA I
endpoint: pKi
Formally, pKi is defined as -log10 of the concentration c, with c in mol/L.

Please review the following examples before continuing.
NS(=O)(=O)c1ccc(NC(=O)c2nn(-c3ccc(F)cc3)ccc2=O)cc1 [10b] = 6.32
Cc1ccc(-c2cc(C(=O)Nc3ccc(S(N)(=O)=O)cc3)[nH]n2)c(O)c1 = 7.03
Cc1cc(O)c(-c2cc(C(=O)NCCc3ccc(S(N)(=O)=O)cc3)[nH]n2)cc1C = 6.66
NS(=O)(=O)c1ccc(CCNC(=O)c2cc(-c3ccccc3O)n[nH]2)cc1 = 7.06
NS(=O)(=O)c1ccc(NC(=O)c2nn(-c3ccc(Cl)cc3)ccc2=O)cc1 [10d] = 8.21

Qu. Please look up its pKi: Cc1ccc(-c2cc(C(=O)NCCc3ccc(S(N)(=O)=O)cc3)[nH]n2)c(O)c1
Ans. 6.46

Qu. Another molecule: Cc1cc(C)c(O)c(-c2cc(C(=O)NCCc3ccc(S(N)(=O)=O)cc3)[nH]n2)c1
Ans. 7.15

Qu. Next molecule: NS(=O)(=O)c1ccc(NC(=O)c2nn(-c3cccc(Cl)c3)ccc2=O)cc1 [10c]
Ans. 6.08

Qu. Thanks! And NS(=O)(=O)c1ccc(NC(=O)c2cc(-c3ccccc3O)[nH]n2)cc1 ?
Ans. 5.42

* * *

# pKi per record follows
Target: hCA II (Homo sapiens)
Reminder that pKi means the negative base-10 logarithm of the concentration expressed in mol/L.

NS(=O)(=O)c1ccc(NC(=O)c2nn(-c3cccc(Cl)c3)ccc2=O)cc1 [10c] = 7.12

Qu. Entry NS(=O)(=O)c1ccc(NC(=O)c2nn(-c3ccc(Cl)cc3)ccc2=O)cc1 [10d] : reported pKi = ?
Ans. 8.10

Qu. Follow-up item: Cc1ccc(-c2cc(C(=O)NCCc3ccc(S(N)(=O)=O)cc3)[nH]n2)c(O)c1
Ans. 7.79

Qu. Can you handle Cc1ccc(-c2cc(C(=O)Nc3ccc(S(N)(=O)=O)cc3)[nH]n2)c(O)c1 next?
Ans. 6.51

Qu. What would you report for NS(=O)(=O)c1ccc(CCNC(=O)c2cc(-c3cc(Cl)ccc3O)n[nH]2)cc1 ?
Ans. 8.04

* * *

Target: hCA IX (Homo sapiens, UniProt Q16790)
Catalogue of pKi readings, one per entry.
As a rule, pKi stands for the negative log10 of the concentration, concentration in M.

Take a look at these entries with their results.
NS(=O)(=O)c1ccc(NC(=O)c2nn(-c3ccc(Cl)cc3)ccc2=O)cc1 [10d] = 6.78
COc1cc2c(cc1OC)-c1c(c(C(=O)Nc3ccc(S(N)(=O)=O)cc3)nn1C)C2 = 8.21
NS(=O)(=O)c1ccc(NC(=O)c2nn(-c3ccc(F)cc3)ccc2=O)cc1 [10b] = 6.88
NS(=O)(=O)c1ccc(NC(=O)c2nn(-c3cccc(Cl)c3)ccc2=O)cc1 [10c] = 6.25

Qu. So what pKi did Cc1cc(O)c(-c2cc(C(=O)NCCc3ccc(S(N)(=O)=O)cc3)[nH]n2)cc1C get with hCA IX (Homo sapiens, UniProt Q16790)?
Ans. 7.20

Qu. Entry Cc1ccc(O)c(-c2cc(C(=O)Nc3ccc(S(N)(=O)=O)cc3)[nH]n2)c1 please
Ans. 8.07

Qu. Likewise for Cc1ccc(-c2cc(C(=O)NCCc3ccc(S(N)(=O)=O)cc3)[nH]n2)c(O)c1 ?
Ans. 7.79

Qu. Quick one: NS(=O)(=O)c1ccc(CCNC(=O)c2cc(-c3cc(Cl)ccc3O)n[nH]2)cc1
Ans. 7.10

Qu. Input Cc1cc(C)c(O)c(-c2cc(C(=O)NCCc3ccc(S(N)(=O)=O)cc3)[nH]n2)c1
Ans. 7.28

* * *

Biological target: hCA XII (Homo sapiens, UniProt O43570)
Sequence (O43570 25-354): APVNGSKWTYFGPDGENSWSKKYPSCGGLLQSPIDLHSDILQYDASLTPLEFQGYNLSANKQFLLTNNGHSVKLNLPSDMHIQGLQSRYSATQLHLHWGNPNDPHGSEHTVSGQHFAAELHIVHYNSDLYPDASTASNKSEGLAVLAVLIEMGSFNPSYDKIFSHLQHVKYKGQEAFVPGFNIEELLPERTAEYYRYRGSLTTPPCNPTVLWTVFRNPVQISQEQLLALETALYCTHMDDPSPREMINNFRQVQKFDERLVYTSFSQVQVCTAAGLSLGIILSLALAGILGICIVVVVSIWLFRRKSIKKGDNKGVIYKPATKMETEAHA
One threshold, 90 nM, splits the recorded Ki values: lower ones are satisfied, equal or higher ones are not satisfied.

Qu. Item Cc1cc(O)c(-c2cc(C(=O)NCCc3ccc(S(N)(=O)=O)cc3)[nH]n2)cc1C [5d] : Ki beneath 90 nM, strictly?
Ans. satisfied

Qu. Can you handle Cc1ccc(-c2cc(C(=O)Nc3ccc(S(N)(=O)=O)cc3)[nH]n2)c(O)c1 [4b] next?
Ans. not satisfied

* * *

Readings of melting point for the listed molecules

Reference set (2 entries):
Cc1ccc(-c2cc(C(=O)NCCc3ccc(S(N)(=O)=O)cc3)[nH]n2)c(O)c1 = 254 to 255 °C
NS(=O)(=O)c1ccc(NC(=O)c2nn(-c3cccc(Cl)c3)ccc2=O)cc1 [10c] = 297 to 299 °C

Next:
Qu. Value lookup for melting point; key = Cc1cc(O)c(-c2cc(C(=O)NCCc3ccc(S(N)(=O)=O)cc3)[nH]n2)cc1C
Ans. 256 to 258 °C

* * *

Target: hCA II (Homo sapiens, UniProt P00918)
Reported Ki values follow for various molecules

Known results for molecules:
NS(=O)(=O)c1ccc(NC(=O)c2nn(-c3ccc(F)cc3)ccc2=O)cc1 [10b] = 0.0725 µM
NS(=O)(=O)c1ccc(NC(=O)c2cc(-c3cc(Cl)ccc3O)n[nH]2)cc1 [4f] = 0.0372 µM
Cc1cc(C)c(O)c(-c2cc(C(=O)NCCc3ccc(S(N)(=O)=O)cc3)[nH]n2)c1 [5e] = 0.0162 µM
NS(=O)(=O)c1ccc(NC(=O)c2cc(-c3ccccc3O)[nH]n2)cc1 [4a] = 0.867 µM

Qu. Any idea what its Ki is? The molecule is Cc1ccc(O)c(-c2cc(C(=O)Nc3ccc(S(N)(=O)=O)cc3)[nH]n2)c1 [4c]
Ans. 0.0161 µM

* * *

Molecular target: hCA XII (Homo sapiens)
Label t when Ki is strictly below 300 nM; at or above that, label f.

NS(=O)(=O)c1ccc(NC(=O)c2cc(-c3ccccc3O)[nH]n2)cc1 = t
NS(=O)(=O)c1ccc(NC(=O)c2nn(-c3cccc(Cl)c3)ccc2=O)cc1 [10c] = f
NS(=O)(=O)c1ccc(NC(=O)c2nn(-c3ccc(Cl)cc3)ccc2=O)cc1 [10d] = t
NS(=O)(=O)c1ccc(NC(=O)c2nn(-c3ccc(F)cc3)ccc2=O)cc1 [10b] = t

Note: attention shifts to another entry.
Qu. Please check: Ki for Cc1ccc(-c2cc(C(=O)NCCc3ccc(S(N)(=O)=O)cc3)[nH]n2)c(O)c1 , strictly under 300 nM or not?
Ans. f
